Source of measurements: the supplement of paper PMC10126150

# switch fluorescence ratio per entry
Tested on: ATP;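 further: ATP exposure 15 min at 22 °C before imaging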
Experiment: switch fluorescence ratio, 500 uM ATP over buffer (Cy3 cluster intensity, sum of 5 cycles each) (fold (ratio)); higher = stronger signal-on switching upon ATP binding; sequences stand for … in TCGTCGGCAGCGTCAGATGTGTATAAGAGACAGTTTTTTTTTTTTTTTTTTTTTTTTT…TC
Conditions: aptamer strand: ATP DNA aptamer (quencher-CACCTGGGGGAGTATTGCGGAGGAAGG + anchor), 100 nM annealed; ATP concentration: 500 uM
Endpoint label: switch fluorescence ratio

| Primary sequence | Endpoint label | Meas value |
| --- | --- | --- |
| GGGTATTGAT | switch fluorescence ratio | 1.01 |
| CGGGGCTGAA | switch fluorescence ratio | 0.991 |
| GTTGTTGAGT | switch fluorescence ratio | 0.997 |
| GGTTGAAAAG | switch fluorescence ratio | 0.979 |
| CAGGACCCGA | switch fluorescence ratio | 0.99 |
| ATTTTAGAAA | switch fluorescence ratio | 1.01 |
| TGTTTGGGGC | switch fluorescence ratio | 0.989 |
| TGGAGAGGGT | switch fluorescence ratio | 0.976 |
| GGCGTAATTG | switch fluorescence ratio | 1 |
| TTGTCCGTAG | switch fluorescence ratio | 1.06 |
| TAATGAGGGA | switch fluorescence ratio | 1 |
| TTACTAGTAT | switch fluorescence ratio | 1 |
| TGGGGGTGAA | switch fluorescence ratio | 1.02 |
| TTTGGGGCT | switch fluorescence ratio | 0.957 |
| GTTTAAAGTC | switch fluorescence ratio | 0.989 |
| CGGTGTGGCT | switch fluorescence ratio | 0.97 |
| AAAGTAAGCC | switch fluorescence ratio | 0.984 |
| GACTAAGTTT | switch fluorescence ratio | 1.02 |
| AAGAGGTATA | switch fluorescence ratio | 1.01 |
| CGTTCTCTGT | switch fluorescence ratio | 0.987 |
